# herbicidal action SETVI per record follows
System: Setaria viridis
Test: Post-emergence herbicidal action, SETVI
Format: in vivo
Set-up: key: % herbicidal action vs untreated; 100 = plants died, 0 = like control
Settings: Dosage 80 g/ha
assay metric: herbicidal action SETVI

{"columns": ["molecule", "assay value"],
 "data": [
  ["Cc1c(C(=O)Nc2nnnn2C)ccc(S(C)(=O)=O)c1CS(C)(=O)=O", 90],
  ["CCCn1nnnc1NC(=O)c1ccc(C(F)(F)F)c(CS(C)(=O)=O)c1OC", 100],
  ["Cc1c(C(=O)Nc2nnnn2C)ccc(C(F)F)c1CS(C)(=O)=O", 90],
  ["C=CCSCc1c(C(F)(F)F)ccc(C(=O)Nc2nnnn2CCC)c1Cl", 100],
  ["Cc1c(C(=O)Nc2nnnn2C)ccc(C(F)F)c1C[S+](C)[O-] (stereo not drawn)", 80],
  ["CCCn1nnnc1NC(=O)c1ccc(C(F)F)c(C[S+]([O-])CC)c1Cl (stereo not drawn)", 100],
  ["Cc1ccc(C(=O)Nc2nnnn2C)c(Cl)c1CS(C)(=O)=O", 90],
  ["CCS(=O)(=O)Cc1c(C(F)(F)F)ccc(C(=O)Nc2nnnn2C)c1C", 90],
  ["CCn1nnnc1NC(=O)c1ccc(C(F)F)c(CSC)c1SC", 90],
  ["CCCn1nnnc1NC(=O)c1ccc(I)c(C[S+](C)[O-])c1Cl (stereo not drawn)", 100],
  ["CCn1nnnc1NC(=O)c1ccc(C)c(C[S+](C)[O-])c1Cl (stereo not drawn)", 90],
  ["CCn1nnnc1NC(=O)c1ccc(C(F)(F)F)c(CS(=O)(=O)CC)c1C", 90]
]}

* * *

# Herbicidal action against ABUTH per record follows
Test system: Abutilon theophrasti
Test: Pre-emergence herbicidal action, ABUTH
Format: in vivo
Design: key: % activity: 100 = plants have died, 0 = like control plants
Conditions: comparative experiment, 80 g of a.i./ha

{"columns": ["molecule", "Herbicidal action against ABUTH"],
 "data": [
  ["CC[S+]([O-])c1c(C(F)(F)F)ccc(C(=O)Nc2nnnn2C)c1Br (stereo not drawn) [Example V-12, reference compound]", 0],
  ["CCSCc1c(C(F)(F)F)ccc(C(=O)Nc2nnnn2C)c1Br", 100],
  ["CCS(=O)(=O)Cc1c(C(F)(F)F)ccc(C(=O)Nc2nnnn2C)c1Br", 100],
  ["CC[S+]([O-])Cc1c(C(F)(F)F)ccc(C(=O)Nc2nnnn2C)c1Br (racemic)", 100],
  ["CCSc1c(C(F)(F)F)ccc(C(=O)Nc2nnnn2C)c1Br [Example V-11, reference compound]", 0],
  ["CCS(=O)(=O)c1c(C(F)(F)F)ccc(C(=O)Nc2nnnn2C)c1Br [Example V-13, reference compound]", 0]
]}

* * *

Test system: Veronica persica
Experiment: Pre-emergence herbicidal action, VERPE
Format: in vivo
Details: dosage 320 g/ha
# herbicidal action VERPE per record follows

{"columns": ["compound", "herbicidal action VERPE / %"],
 "data": [
  ["CSCc1c(S(C)(=O)=O)ccc(C(=O)Nc2nnnn2C)c1C [Example 1-37]", 90],
  ["COc1c(C(=O)Nc2nnnn2C)ccc(Cl)c1CSC [Example 1-570]", 80],
  ["Cc1c(C(=O)Nc2nnnn2C)ccc(S(C)(=O)=O)c1C[S+](C)[O-] (centres unmarked) [Example 1-38]", 100],
  ["CCCn1nnnc1NC(=O)c1ccc(S(C)(=O)=O)c(CS(C)(=O)=O)c1C [Example 3-39]", 100],
  ["Cc1ccc(C(=O)Nc2nnnn2C)c(Cl)c1C[S+](C)[O-] (racemic) [Example 1-288]", 90]
]}

* * *

Test system: Echinochloa crus-galli
Test: Post-emergence herbicidal action, ECHCG
Format: in vivo
Set-up: key: % herbicidal action vs untreated; 100 = plants died, 0 = like control
Conditions: post-emergence, dosage 80 g/ha
assay metric: Herbicidal action against ECHCG

{"columns": ["compound", "assay value"],
 "data": [
  ["Cn1nnnc1NC(=O)c1ccc(S(C)(=O)=O)c(CS(C)(=O)=O)c1Cl", 90],
  ["CCn1nnnc1NC(=O)c1ccc(I)c(CSC)c1Cl", 100],
  ["CCCn1nnnc1NC(=O)c1ccc(S(C)(=O)=O)c(C[S+](C)[O-])c1C (stereo not drawn)", 90],
  ["COc1c(C(=O)Nc2nnnn2C)ccc(Cl)c1CSC", 100],
  ["COc1c(C(=O)Nc2nnnn2C)ccc(C(F)(F)F)c1CS(C)(=O)=O", 90],
  ["COc1c(C(=O)Nc2nnnn2C)ccc(C(F)(F)F)c1CSC", 90]
]}

* * *

System: Amaranthus retroflexus
Test: Post-emergence herbicidal action, AMARE
Type: in vivo
Parameters: key: % herbicidal action vs untreated; 100 = plants died, 0 = like control
Details: post-emergence, dosage 80 g/ha

{"columns": ["molecule", "unit of measurement", "herbicidal action AMARE"],
 "data": [
  ["Cn1nnnc1NC(=O)c1ccc(I)c(C[S+](C)[O-])c1Cl (racemic)", "%", 100],
  ["C=CCSCc1c(C(F)(F)F)ccc(C(=O)Nc2nnnn2C)c1Cl", "%", 100],
  ["CCCn1nnnc1NC(=O)c1ccc(C(F)(F)F)c(C[S+](C)[O-])c1Br (stereo not drawn)", "%", 90],
  ["Cc1c(C(=O)Nc2nnnn2C)ccc(C(F)(F)F)c1C[S+](C)[O-] (stereo not drawn)", "%", 90],
  ["Cn1nnnc1NC(=O)c1ccc(C(F)(F)F)c(C[S+](C)[O-])c1Br (stereo not drawn)", "%", 100],
  ["CSCc1c(I)ccc(C(=O)Nc2nnnn2C)c1Cl", "%", 100],
  ["CCn1nnnc1NC(=O)c1ccc(C(F)(F)F)c(C[S+](C)[O-])c1Br (stereo not drawn)", "%", 90],
  ["CCn1nnnc1NC(=O)c1ccc(C(F)(F)F)c(C[S+]([O-])CC)c1Cl (stereo not drawn)", "%", 100],
  ["CCn1nnnc1NC(=O)c1ccc(C(F)(F)F)c(CSC)c1Br", "%", 80],
  ["CCn1nnnc1NC(=O)c1ccc(C(F)(F)F)c(CS(=O)(=O)CC)c1Br", "%", 90],
  ["CCSCc1c(C(F)F)ccc(C(=O)Nc2nnnn2C)c1Cl", "%", 90],
  ["CCn1nnnc1NC(=O)c1ccc(C(F)F)c(C[S+]([O-])CC)c1Cl (stereo not drawn)", "%", 100],
  ["COCCSCc1c(C(F)(F)F)ccc(C(=O)Nc2nnnn2C)c1Cl", "%", 100],
  ["CCSCc1c(C(F)F)ccc(C(=O)Nc2nnnn2CC)c1Cl", "%", 80],
  ["Cn1nnnc1NC(=O)c1ccc(C(F)(F)F)c(C[S+]([O-])CC(F)(F)F)c1Cl (racemic)", "%", 100],
  ["CCSCc1c(C(F)(F)F)ccc(C(=O)Nc2nnnn2CC)c1C", "%", 80],
  ["CSCc1c(C(F)(F)F)ccc(C(=O)Nc2nnnn2C)c1Cl", "%", 100],
  ["CCn1nnnc1NC(=O)c1ccc(C(F)(F)F)c(CSC)c1SC", "%", 100],
  ["CSc1c(C(=O)Nc2nnnn2C)ccc(C(F)(F)F)c1C[S+](C)[O-] (stereo not drawn)", "%", 100],
  ["Cn1nnnc1NC(=O)c1ccc(C(F)(F)F)c(CS(=O)(=O)C2CC2)c1Cl", "%", 100],
  ["CSCc1c(C(F)(F)F)ccc(C(=O)Nc2nnnn2C)c1Br", "%", 80],
  ["Cn1nnnc1NC(=O)c1ccc(C(F)(F)F)c(CSC2CC2)c1Cl", "%", 100],
  ["CCCn1nnnc1NC(=O)c1ccc(C(F)(F)F)c(CSCC2CC2)c1Cl", "%", 100],
  ["CCn1nnnc1NC(=O)c1ccc(C(F)(F)F)c(C[S+](C)[O-])c1Cl (stereo not drawn)", "%", 100],
  ["Cn1nnnc1NC(=O)c1ccc(C(F)(F)F)c(C[S+]([O-])C2CC2)c1Cl (racemic)", "%", 100],
  ["Cn1nnnc1NC(=O)c1ccc(C(F)(F)F)c(CSCC2CC2)c1Cl", "%", 100],
  ["CCCn1nnnc1NC(=O)c1ccc(C(F)(F)F)c(C[S+](C)[O-])c1SC (stereo not drawn)", "%", 100],
  ["CC[S+]([O-])Cc1c(C(F)(F)F)ccc(C(=O)Nc2nnnn2C)c1Cl (racemic)", "%", 100],
  ["CCCn1nnnc1NC(=O)c1ccc(C(F)(F)F)c(C[S+](C)[O-])c1Cl (stereo not drawn)", "%", 100],
  ["Cn1nnnc1NC(=O)c1ccc(C(F)(F)F)c(C[S+](C)[O-])c1Cl (racemic)", "%", 90],
  ["CCS(=O)(=O)Cc1c(C(F)(F)F)ccc(C(=O)Nc2nnnn2C)c1Br", "%", 90],
  ["CCn1nnnc1NC(=O)c1ccc(C(F)(F)F)c(CSC)c1Cl", "%", 100],
  ["CCSCc1c(C(F)(F)F)ccc(C(=O)Nc2nnnn2CC)c1Br", "%", 100],
  ["CCn1nnnc1NC(=O)c1ccc(C(F)(F)F)c(C[S+]([O-])CC)c1Br (stereo not drawn)", "%", 90],
  ["CCn1nnnc1NC(=O)c1ccc(C(F)F)c(CS(C)(=O)=O)c1Cl", "%", 80],
  ["CCSCc1c(C(F)(F)F)ccc(C(=O)Nc2nnnn2C)c1Br", "%", 90]
]}
